# test.name: NCI Yeast Anticancer Drug Screen. Data for the bub3 strain (AID 167)
# details: S. cerevisiae bub3 mutant strain, at 50.0 µM
The panel holds about 79,000 compounds, 15% with a hit somewhere; the sample as a whole holds those more often. The source made the active and inactive calls. Rule as the data show it: active = growth inhibition above about 70%; inactive = the rest. Where a SMILES comes first, the peptide text is derived from it. [ ]: non-standard residue; d: D form. The star is where a group is joined. ξ: configuration not given here. Cbz = O=C(OCc1ccccc1)*; ξT = CC(O)C(N)C(=O)O
The categories you may choose from are active, inactive

Lookup: Entry "CC(C)(CCN(CC(=O)O)CC(=O)O)[N+](=O)[O-]" : call = ?
Found: inactive

Lookup: What was the test verdict on "CCCCCCC(=O)/C=C/c1ccc(OCc2ccccc2)c(OCc2ccccc2)c1" ?
Found: inactive

Lookup: Answer briefly: the call reported for "O=c1[nH]c2cc([N+](=O)[O-])ccc2nc1/C=C(\O)c1ccccc1" in this assay.
Found: inactive

Lookup: I would be grateful if you could indicate the recorded call for "Cc1ccc(S(=O)(=O)c2c(N)c3nccn3c3nc4ccccc4nc23)cc1" .
Found: inactive

Lookup: Outcome logged for "CN(C)CCN(C)CCN(C)CCN(C)C" in this assay:
Found: inactive

Lookup: What outcome does the record of this test show for "O=C(CCc1nnc2s/c(=C\c3ccccc3Cl)c(=O)n12)Nc1cc(Cl)ccc1Cl" ?
Found: inactive

Lookup: Recorded call for "CC(C)(C)N=c1n(C(C)(C)C)oc(=O)n1C(C)(C)C" ?
Found: inactive

Lookup: Hey, what did the test say about CC(Sc1nc2ccccc2c(=O)[nH]1)c1ccccc1 (stereo not drawn) ?
Found: inactive

Lookup: Name the outcome recorded for "CCOC(=O)c1ccc(N(C=O)CCC(OCC)OCC)cc1" in the assay.
Found: inactive

Lookup: State the result this test recorded for "O=C(Cn1c(C(=O)c2ccccc2)nc2ccccc21)c1ccccc1" .
Found: inactive

Lookup: Which outcome did this test record for the molecule "NCc1ccc(O)c(O)c1" ?
Found: inactive

Lookup: Recorded test call requested for "O=C(C[n+]1csc2ccccc21)c1ccc(I)cc1"
Found: inactive

Lookup: Recorded test outcome, item c1ccc2c(C3CO3)c3ccc4ccccc4c3cc2c1 (stereo not drawn)
Found: active

Lookup: # outcome recorded in this test, key = "c1nnc2c3c4c(sc3ncn12)CCCC4"
Found: inactive

Lookup: What was the test verdict on "CCN(CC)c1ccc(C)cc1Cl" ?
Found: inactive

Lookup: Dear colleague, could you share the recorded outcome for "CCOC(=O)/C(Cc1cnc2ccccc2n1)=N\O" when you have a moment?
Found: inactive

Lookup: // outcome(item) with item = CC(O)C(NC(=O)CNC(=O)CNC(=O)OCc1ccccc1)C(=O)O (stereo not drawn) (Cbz-Gly-Gly-[ξT]-OH)
Found: inactive

Lookup: Please state the recorded outcome for this molecule: O=CC1N=C1c1ccccc1 (stereo not drawn)
Found: inactive

Lookup: # outcome recorded in this test, key = "CC(=Nc1cccc2ccccc12)c1c(O)cc(C)oc1=O"
Found: inactive

Lookup: So what was the verdict on CC(=O)NC(C(=O)O)C(C)(C)S (stereo not drawn) in this test?
Found: inactive

Lookup: // param item: COC1(c2ccccc2)N=C(c2ccc([N+](=O)[O-])cc2)OC1(C)C (stereo not drawn) ; yields the recorded call
Found: inactive

Lookup: Status in this test for CC(C)(C)[Si](C)(C)OC1C(=O)C[C@H]2CCCC[C@@H]12 (stereo partly drawn) ?
Found: inactive

Lookup: Hello, I am checking results. What call was entered for COc1cc2c(c([N+](=O)[O-])c1)NC(=O)C(c1ccccc1)S2 (stereo not drawn) ?
Found: inactive

Lookup: Please share the test call associated with "C=CCSc1nc2ccc(NCn3c(=S)sc4ccccc43)cc2s1" .
Found: inactive

Lookup: What call does the record list for CN1C(=O)C2C=CC1c1ccccc12 (stereo not drawn) ?
Found: inactive

Lookup: I'd appreciate the recorded outcome for "CCCCOC(=O)NC" from this test.
Found: inactive

Lookup: Would you mind telling me which call this test gave "O=C(NCCCCCCNC(=O)c1cc(-c2ccccc2)nc2ccccc12)c1cc(-c2ccccc2)nc2ccccc12" ?
Found: inactive

Lookup: Give the logged outcome of this assay for the following molecule: "CC(=Nc1ccccc1)Nc1ccccc1"
Found: inactive

* * *

# test.name: NCI Yeast Anticancer Drug Screen. Data for the sgs1 mgt1 strain (AID 161);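 also: 0% = growth of cultures given vehicle only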
# details: S. cerevisiae sgs1 mgt1 strain, at 50.0 µM, hits give high values
The panel holds about 79,000 compounds, 15% with a hit somewhere; the sample as a whole holds those more often.
observable: growth inhibition (%)
All answers are understood in %, so give the number only.

Lookup: Name the reported growth inhibition value associated with the compound CNC(=O)C(c1ccccc1)C(F)(F)F (configuration not stated)
Found: -6.7

Lookup: What value of measured growth inhibition is listed for "NC1(C(=O)O)CCCCC1" ?
Found: -30.7

Lookup: Return reported growth inhibition; argument: "C1C[OH+]CC[OH+]CCNCC[OH+]CC[OH+]CCN1.Cl.[Cl-].[Pt+4]"
Found: 6.25

Lookup: Need growth inhibition of "O=c1[nH]c2nc3ccccc3c(=O)n2/c1=C/c1ccc(O)cc1" , thanks.
Found: -12

Lookup: Need growth inhibition, item CN1C(=O)C(C)(O)Sc2ccccc21 (configuration not stated)
Found: -36.2

Lookup: # query: growth inhibition of entry "CCOC(=O)c1ccc(NC(=O)CCCCCCCCC(=O)Nc2ccc(C(=O)OCC)cc2)cc1"
Found: -0.85

Lookup: Item under review: C/C(=C/C(C)C)C(C)(C#N)C(N)=O (configuration not stated) . Reported growth inhibition?
Found: 1.2

Lookup: Form field: reported growth inhibition of "CCOC(=O)c1c(-c2ccccc2)c(-c2ccccc2)cn1C"
Found: 5.2

Lookup: Return reported growth inhibition; argument: C#CCNC(=O)CCC(N)C(=O)O (configuration not stated)
Found: -14.8

Lookup: growth inhibition for C/C(=N/N(C=O)C[n+]1ccccc1)C(CN(CC(C)C)CC(C)C)C(=O)Nc1ccc(C)cc1C (configuration not stated) ?
Found: -14.5

Lookup: Record request: growth inhibition value, item "CCCCCCCCCCCCCCCCS(=O)(=O)N/N=C(/c1ccc(Cl)cc1)N1CCCCC1"
Found: 3.25

Lookup: What does the record list as growth inhibition for "CC(=O)/C(=C\c1ccc([N+](=O)[O-])o1)C(=O)CCN(C)C" ?
Found: 63

Lookup: What value of growth inhibition has been reported for the following compound? CCC(C)C=O (configuration not stated)
Found: -9.2

Lookup: Need growth inhibition, item "COC1=CC(=O)C=C(OC)C1=O"
Found: -28.6

Lookup: Suppose we examine the compound COC(=O)C(=O)C(C(=O)C(=O)Nc1cccc(OC)c1)c1nc2ccc(Cl)cc2[nH]c1=O (configuration not stated) ; what growth inhibition value has been reported?
Found: -8.25

Lookup: Endpoint output: growth inhibition of "O=C(OCCN1C(=O)c2cccc3c(Br)ccc(c23)C1=O)OCc1ccccc1" . Value?
Found: 60.1

Lookup: Item "CCCCCCCCCCCCS(=O)(=O)CCC(=O)c1ccco1" has what recorded growth inhibition?
Found: -6.8

Lookup: May I ask what growth inhibition has been recorded for Cc1ccc(NC(=O)CC2C(=O)Nc3ccccc3S2=O)c(C)c1 (configuration not stated) ?
Found: 4.45

Lookup: Query: growth inhibition; subject: "CC1=NN(c2nc(N)nc(CCl)n2)C(C)(C)C1"
Found: -6.7

Lookup: Look up growth inhibition for this compound: CCCCCCCCCCC(C(=O)O)C1(C(=O)O)CCC(=O)O1 (configuration not stated)
Found: -5.8

Lookup: Report growth inhibition for "COc1ccc(/C=C\c2cccc(Cl)c2)cc1" please.
Found: 3.3

Lookup: Recorded growth inhibition for "O=C1C=C2CCC[C@H]3OC(=O)C[C@@]23CC1" , please?
Found: 35.3

Lookup: # query: growth inhibition of entry CCOC(=O)CCC(C#N)C(=O)OCC (configuration not stated)
Found: 9.3

Lookup: Given the compound COc1cc(C2SCC(=O)N2c2ccc(-n3c(-c4ccccc4)nc4ccccc4c3=O)cc2)cc(OC)c1OC (configuration not stated) , what is its reported growth inhibition?
Found: -4.4

Lookup: Item N#CCN1c2ccccc2CCC1Cl (configuration not stated) has what recorded growth inhibition?
Found: -5.05

Lookup: Requested field: growth inhibition. Item: "CN(C=O)c1cccc(C(=O)O)c1"
Found: -3.95

Lookup: Entry COC(=O)C1=C(C(=O)OC)C2(CCCCCC2=O)OC1=O (configuration not stated) has what growth inhibition?
Found: -12.8

Lookup: Return reported growth inhibition; argument: "[O-][n+]1ccccc1Cl"
Found: 10.2

Lookup: What value of growth inhibition has been recorded for this entry: NC1CCC2(O)c3ccccc3C2C1 (configuration not stated)
Found: 22.2

Lookup: For "CN(C)CCNC(=O)c1nc([N+](=O)[O-])cn1C" , what is its reported growth inhibition?
Found: -2.25

Lookup: I am curious: what growth inhibition value has been reported for "N#CC(C#N)=C(N)/C(C#N)=C\c1ccnc2ccccc12" ?
Found: -3

Lookup: Param item = Cc1ccc(S(=O)(=O)NC(C)C(=O)O)cc1 (configuration not stated) ; retrieve measured growth inhibition.
Found: 4.9

Lookup: Requested field: growth inhibition. Item: CCOC(=O)c1ncn(C2OC(CO)C(O)C2O)c1N (configuration not stated)
Found: 31.4

Lookup: Report growth inhibition for CC(C)(C)c1cc(C2OC(N)=C(O)C2=O)cc(C(C)(C)C)c1O (configuration not stated) please.
Found: 24.7

Lookup: # growth inhibition lookup, item "Cc1c(/C=N/O)nc2ccccc2c1C(=O)O"
Found: -6.5

Lookup: May I ask what growth inhibition has been recorded for "CC1=C(C(=O)CC(=O)C(=O)Nc2ccc(C)cc2)Sc2ccccc2N1" ?
Found: -16.4

Lookup: Reported growth inhibition for OC1CC2CCC(C1)N2c1ccccc1 (configuration not stated) : what is it?
Found: 16.6

Lookup: Bench note: what growth inhibition did "CC(C)CCOc1ccc(CCO)cc1" show?
Found: -4.5

Lookup: Consider the compound shown here: "Cc1c(C)c(CN)c(C)c(C)c1CN" What is its recorded growth inhibition?
Found: -16.6

Lookup: Entry under review: "COc1ccc(C2=CN(S(=O)(=O)c3ccc(C)cc3)CCc3ccccc32)cc1" . Reported growth inhibition?
Found: -31.8

Lookup: For "O=C(c1ccc(CSc2ccc(Cl)cc2)o1)N1CCOCC1" , what is its reported growth inhibition?
Found: 45.5

Lookup: Please look up its growth inhibition: "COc1cc(O)c(C(C)=O)c2c1C=CC(C)(C)O2"
Found: -19.9
